Recorded values, source patent US20140377340A1.

test target: purified HLA DRB1*0301 (Homo sapiens, UniProt P01903+P01911, A100K/A102G/A103R/A169T/F55Y/I96L/K41T/L162R/M171V/P40S/Q125H/Q178H/Q39Y/R42S/S66N/T106N/T262R/W38E/Y61H)
Construct: purified from EBV transformed homozygous cell lines or single MHC allele transfected 721.221, C1R, or fibroblast lines; made in house
assay protocol: HLA-DR radioligand binding inhibition assay, DRB1*0301
condition context: IC50 nM purified HLA DRB1 *0301, purified HLA DRB1*0301
reported property: IC50 (nM)
Quick reminder: number only, in nM, skip the unit.

// query Endpoint output: IC50 of CC[C@H](C)[C@H](NC(=O)[C@@H](NC(=O)[C@@H]1CCCN1C(=O)[C@H](C)N)[C@@H](C)O)C(=O)N[C@@H](CCCNC(=N)N)C(=O)NCC(=O)N[C@@H](CC(=O)O)C(=O)N1CCC[C@H]1C(=O)N[C@@H](CCC(=O)O)C(=O)N[C@@H](CS)C(=O)N[C@@H](Cc1c[nH]cn1)C(=O)N[C@@H](CC(C)C)C(=O)N[C@@H](Cc1ccccc1)C(=O)N[C@@H](Cc1ccc(O)cc1)C(=O)N[C@@H](CC(N)=O)C(=O)O [Peptide 9019.0022] . Value?
// result 31

====

test target: purified HLA DRB1*1501 (Homo sapiens, UniProt P01903+P01911)
Construct: purified from EBV transformed homozygous cell lines or single MHC allele transfected 721.221, C1R, or fibroblast lines; made in house
assay protocol: HLA-DR radioligand binding inhibition assay, DRB1*1501
reported property: IC50 (nM)
Quick reminder: number only, in nM, skip the unit.

// query Hi! What's the reported IC50 for CSCC[C@H](NC(=O)[C@H](C)NC(=O)[C@H](CC(C)C)NC(=O)[C@@H]1CCCN1C(=O)[C@H](Cc1ccccc1)NC(=O)[C@@H](NC(=O)[C@H](CCC(=O)O)NC(=O)[C@H](CCC(=O)O)NC(=O)[C@@H](N)CCC(=O)O)C(C)C)C(=O)N[C@@H](CC(N)=O)C(=O)N[C@@H](Cc1ccc(O)cc1)C(=O)N[C@@H](CC(C)C)C(=O)N[C@@H](CC(=O)O)C(=O)N[C@@H](CCCNC(=N)N)C(=O)N[C@@H](Cc1ccccc1)C(=O)O [Peptide 9019.0152] on purified HLA DRB1*1501 (Homo sapiens, UniProt P01903+P01911)?
// result 77

// query Now this one: CC[C@H](C)[C@H](NC(=O)[C@H](CCC(=O)O)NC(=O)[C@@H](NC(=O)[C@H](CC(C)C)NC(=O)[C@H](CO)NC(=O)[C@H](CCCNC(=N)N)NC(=O)[C@H](CC(C)C)NC(=O)[C@H](CCC(N)=O)NC(=O)[C@H](CC(C)C)NC(=O)[C@H](CCC(=O)O)NC(=O)[C@H](CCCNC(=N)N)NC(=O)[C@H](CC(C)C)NC(=O)CNC(=O)CNC(=O)[C@@H]1CCCN1)[C@@H](C)O)C(=O)O [Peptide 9019.0038]
// result 4410

// query Now this one: CSCC[C@H](NC(=O)CNC(=O)[C@H](CC(C)C)NC(=O)CNC(=O)[C@H](Cc1ccc(O)cc1)NC(=O)[C@@H](N)CS)C(=O)N[C@@H](CCC(=O)O)C(=O)N[C@@H](Cc1c[nH]cn1)C(=O)N[C@@H](CC(C)C)C(=O)N[C@@H](CCCNC(=N)N)C(=O)N[C@@H](CCC(=O)O)C(=O)N[C@H](C(=O)N[C@@H](CCCNC(=N)N)C(=O)N[C@@H](C)C(=O)N[C@H](C(=O)O)C(C)C)C(C)C [Peptide 9019.0044]
// result 690

// query Now this one: CC[C@H](C)[C@H](N)C(=O)N[C@@H](CO)C(=O)N[C@@H](C)C(=O)N[C@H](C(=O)N[C@H](C(=O)NCC(=O)N[C@H](C(=O)N[C@@H](CC(C)C)C(=O)N[C@@H](CC(C)C)C(=O)N[C@H](C(=O)N[C@H](C(=O)N[C@H](C(=O)N[C@@H](CC(C)C)C(=O)NCC(=O)N[C@H](C(=O)O)C(C)C)C(C)C)C(C)C)C(C)C)[C@@H](C)CC)C(C)C)C(C)C [Peptide 9019.0067]
// result 6000

More entries:
// query Hi! What's the reported IC50 for CC[C@H](C)[C@H](NC(=O)CNC(=O)[C@H](CC(C)C)NC(=O)CN)C(=O)N[C@@H](CO)C(=O)N[C@@H](Cc1c[nH]c2ccccc12)C(=O)N[C@@H](CC(C)C)C(=O)NCC(=O)N[C@@H](CC(C)C)C(=O)N[C@@H](CCCNC(=N)N)C(=O)N[C@@H](CO)C(=O)N[C@@H](CC(C)C)C(=O)N[C@@H](CCCNC(=N)N)C(=O)N[C@@H](CCC(=O)O)C(=O)N[C@@H](CC(C)C)C(=O)O [Peptide 9019.0056] on purified HLA DRB1*1501 (Homo sapiens, UniProt P01903+P01911)?
// result 5.2

// query Now this one: CC[C@H](C)[C@H](NC(=O)CNC(=O)[C@H](CC(C)C)NC(=O)CNC(=O)[C@H](CCC(N)=O)NC(=O)[C@H](CC(C)C)NC(=O)[C@@H](NC(=O)[C@H](CC(C)C)NC(=O)[C@@H](N)CO)[C@@H](C)O)C(=O)N[C@@H](CO)C(=O)N[C@@H](Cc1c[nH]c2ccccc12)C(=O)N[C@@H](CC(C)C)C(=O)NCC(=O)N[C@@H](CC(C)C)C(=O)N[C@@H](CCCNC(=N)N)C(=O)O [Peptide 9019.0055]
// result 50

====

test target: purified HLA DRB1*1101 (Homo sapiens, UniProt P01903+P01911, A100R/A169T/A87E/I96F/K41T/L162R/M171V/P40S/Q125H/Q178H/Q39Y/Q99D/R42S/S66Y/T262R/V115G/W38E)
Construct: purified from EBV transformed homozygous cell lines or single MHC allele transfected 721.221, C1R, or fibroblast lines; made in house
Sequence (P01903 26-254, other chains not shown): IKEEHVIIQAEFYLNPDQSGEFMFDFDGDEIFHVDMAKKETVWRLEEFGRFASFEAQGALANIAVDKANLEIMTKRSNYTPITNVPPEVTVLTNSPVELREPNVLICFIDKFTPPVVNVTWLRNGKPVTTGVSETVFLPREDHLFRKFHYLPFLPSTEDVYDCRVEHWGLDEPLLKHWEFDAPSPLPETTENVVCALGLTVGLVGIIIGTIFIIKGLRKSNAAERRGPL
assay protocol: HLA-DR radioligand binding inhibition assay, DRB1*1101
condition context: IC50 nM purified HLA DRB1 *1101, purified HLA DRB1*1101
reported property: IC50

// query Endpoint output: IC50 of CC(C)C[C@H](NC(=O)[C@H](Cc1c[nH]cn1)NC(=O)[C@@H](N)CS)C(=O)N[C@@H](Cc1ccccc1)C(=O)N[C@@H](Cc1ccc(O)cc1)C(=O)N[C@@H](CC(N)=O)C(=O)N[C@@H](CCC(=O)O)C(=O)N[C@@H](CCC(N)=O)C(=O)N[C@@H](CCC(N)=O)C(=O)N[C@@H](CCC(=O)O)C(=O)N[C@@H](C)C(=O)N[C@@H](CCCNC(=N)N)C(=O)NCC(=O)N[C@H](C(=O)N[C@@H](Cc1c[nH]cn1)C(=O)O)C(C)C [Peptide 9019.0023] . Value?
// result > 20000 nM

// query Now this one: CC[C@H](C)[C@H](NC(=O)CNC(=O)[C@H](CS)NC(=O)[C@@H](N)C(C)C)C(=O)N[C@@H](CCC(N)=O)C(=O)N[C@@H](CC(N)=O)C(=O)N[C@@H](CO)C(=O)N[C@H](C(=O)N[C@@H](CO)C(=O)N[C@@H](C)C(=O)N[C@@H](CC(N)=O)C(=O)N[C@@H](CCCNC(=N)N)C(=O)N[C@@H](CO)C(=O)N[C@@H](CC(=O)O)C(=O)N1CCC[C@H]1C(=O)O)C(C)C [Peptide 9019.0135]
// result > 20000 nM

API: the following record is the query input.
// query Endpoint output: IC50 of CC[C@H](C)[C@H](NC(=O)[C@H](CS)NC(=O)[C@H](CC(C)C)NC(=O)[C@H](CCCCN)NC(=O)[C@H](CCC(=O)O)NC(=O)[C@H](C)NC(=O)[C@@H](NC(=O)[C@H](CC(C)C)NC(=O)[C@@H]1CCCN1C(=O)[C@@H](NC(=O)[C@@H](N)[C@@H](C)O)[C@@H](C)CC)[C@@H](C)O)C(=O)N[C@@H](Cc1ccc(O)cc1)C(=O)N[C@H](C(=O)N[C@@H](CC(=O)O)C(=O)N[C@@H](CC(N)=O)C(=O)O)[C@@H](C)O [Peptide 1622.01] . Value?
// result > 20000 nM

====

test target: purified HLA DRB5*0101 (Homo sapiens, UniProt P01903+Q30154)
Construct: purified from EBV transformed homozygous cell lines or single MHC allele transfected 721.221, C1R, or fibroblast lines; made in house
assay protocol: HLA-DR radioligand binding inhibition assay, DRB5*0101
condition context: IC50 nM purified HLA DRB5 *0101, purified HLA DRB5*0101
Listed below: IC50 values for each entry.

Observe how each entry below is paired with its result.
// query Endpoint output: IC50 of CC[C@H](C)[C@H](NC(=O)[C@@H](NC(=O)[C@@H]1CCCN1C(=O)[C@H](C)NC(=O)[C@H](CC(=O)O)NC(=O)[C@@H]1CCCN1C(=O)CNC(=O)[C@H](Cc1ccc(O)cc1)NC(=O)[C@H](CC(C)C)NC(=O)[C@@H](NC(=O)[C@H](CC(N)=O)NC(=O)[C@@H](N)CC(C)C)C(C)C)[C@@H](C)O)C(=O)N[C@@H](CO)C(=O)N1CCC[C@H]1C(=O)N[C@@H](CC(C)C)C(=O)O [Peptide 9019.0120] . Value?
// result > 20000 nM

// query Now this one: CC[C@H](C)[C@H](N)C(=O)N[C@@H](CC(N)=O)C(=O)NCC(=O)N[C@H](C(=O)N1CCC[C@H]1C(=O)N[C@@H](CCC(N)=O)C(=O)N[C@@H](CCC(N)=O)C(=O)N[C@@H](Cc1c[nH]cn1)C(=O)N[C@H](C(=O)N[C@@H](CCC(N)=O)C(=O)N[C@H](C(=O)N[C@@H](CC(C)C)C(=O)N[C@@H](Cc1ccccc1)C(=O)N[C@H](C(=O)N[C@@H](C)C(=O)O)[C@@H](C)CC)C(C)C)[C@@H](C)O)[C@@H](C)CC [Peptide 9019.0139]
// result > 20000 nM

API: the following record is the query input.
// query Endpoint output: IC50 of CC[C@H](C)[C@H](NC(=O)[C@@H](NC(=O)[C@H](CO)NC(=O)[C@H](CC(=O)O)NC(=O)[C@@H](N)CO)C(C)C)C(=O)N[C@@H](CC(C)C)C(=O)N[C@@H](CC(N)=O)C(=O)N[C@H](C(=O)N[C@@H](CC(C)C)C(=O)N[C@@H](Cc1ccc(O)cc1)C(=O)NCC(=O)N1CCC[C@H]1C(=O)N[C@@H](CC(=O)O)C(=O)N[C@@H](C)C(=O)N1CCC[C@H]1C(=O)O)C(C)C [Peptide 9019.0119] . Value?
// result > 20000 nM
